# METHOD DESCRIPTION: soluble on expression in E. coli; label from the status in PepcDB or PDB records
MEASUREMENT LABEL: soluble on expression in E. coli

MAHHHHHHMPSDRVPSGDGFNNPYGNTTLVGNWLEDRLQQRIVHKRRGGAAATWCAQGIFEDPAVTMARHPAEAQAALLHSTYDVDYGHRPGRTQRTASGGVDNSAAASTLMRGSKHNANAAGPGSASSTAKGGIDKVLLFSIDPVADPAAPLPLSTNADTYGAFYYGNDNGSVDNNGARHAGSATGATTSSPADQGDGGATAPPADADRNLYDSVSRAVAAAAAPSSSFRMPRAPMQRGANADATFSSSPVPRRHMLSLGVATTSTFGHTGWTLASSSATSAADHVGAAPWRPLQRHRLPNKDSMDDERWCSSKQAADTPVEHFTLQQRLPPVRM; not soluble
MSSKKNFEVGENVACIYKGKPYDAKITDIKTNSDGKELYCVHFKGWNNRYDEKIPVGEEKDRIFKGTASEYAEKHNAELPTTALKPKKKSLAAEAPRDDRDDTPGTSKGKKAKSVTIAPVMTADDMKVELPKPLRKILIDDYDLVCRYFINIVPHEYSVDQIIEDYIKTIPVSNEQMRTVDDLLIEYEEADIKITNLALICTARGLVDYFNVTLGYQLLYKFERPQYNDLVKKRAMEKGIDITNPTALQDSGFRPSQEYGIVHFLRMLAKLPDYLKLTQWNDHVINRIMIGVHDLIVFLNKNHGKYYRGSSDYQGASNDYYRRSLAADDGVGANQ; not soluble
